All figures here come from ChEMBL document CHEMBL3407424.

tested on: RAW264.7; test: Antiinflammatory activity against mouse RAW264.7 cells assessed as inhibition of LPS-induced NO production at 25 uM incubated for 30 mins by microplate reader analysis; type: functional; details: RAW264.7, 0.5 h
Known inhibition at 25 µM of a selection of compounds

Recorded results for 2 compounds are shown here.
C=C1C(=O)OC[C@H]1CCOC(=O)Nc1cc(C(F)(F)F)cc(C(F)(F)F)c1: > 94%
C=C1C(=O)OC[C@H]1CCOC(=O)Nc1ccc(CC)cc1: > 94%

Okay, now this compound:
Endpoint output: inhibition at 25 µM of "C=C1C(=O)OC[C@H]1CCOC(=O)Nc1ccc(C)c(C)c1" . Value?
> 94%

---

system: RAW264.7; test: Antiinflammatory activity against mouse RAW264.7 cells assessed as inhibition of LPS-induced NO production at 25 uM incubated for 30 mins by microplate reader analysis; type: functional; settings: RAW264.7, 0.5 h
Known inhibition at 25 µM of a selection of compounds

Recorded results for 5 compounds are shown here.
C=C1C(=O)OC[C@H]1CCOC(=O)Nc1ccc(I)cc1: > 94%
C=C1C(=O)OC[C@H]1CCOC(=O)Nc1ccc(C(C)C)cc1: > 94%
C=C1C(=O)OC[C@@H]1CCOC(=O)Nc1c(C)cccc1C(C)C: 39.5%
C=C1C(=O)OC[C@H]1CCOC(=O)Nc1cccc(Br)c1: > 94%
C=C1C(=O)OC[C@H]1CCOC(=O)Nc1ccc(OC)cc1: > 94%

Endpoint output: inhibition at 25 µM of "C=C1C(=O)OC[C@@H]1CCOC(=O)Nc1ccccc1" . Value?
> 94%

---

assay: Cytotoxicity against mouse RAW264.7 cells after 18 hrs by MTT assay; format: cell-based
Known CC50 at 18 h of a selection of compounds
Field: numeric (µM). Do not append units.

Recorded results for 5 compounds are shown here.
C=C1C(=O)OC[C@@H]1CCOC(=O)Nc1ccc(Br)cc1: 19.8
C=C1C(=O)OC[C@H]1CCOC(=O)Nc1c(C)cccc1C(C)C: 22.2
C=C1C(=O)OC[C@@H]1CCOC(=O)Nc1ccc(Cl)cc1: 10.3
C=C1C(=O)OC[C@@H]1CCOC(=O)Nc1ccc(F)cc1F: 14.8
C=C1C(=O)OC[C@H]1CCOC(=O)Nc1ccc(C(=O)OCCCC)cc1: 8.94

Endpoint output: CC50 at 18 h of "C=C1C(=O)OC[C@H]1CCOC(=O)Nc1ccc(Br)cc1" . Value?
8.47

Check "C=C1C(=O)OC[C@H]1CCOC(=O)Nc1cc(C(F)(F)F)cc(C(F)(F)F)c1" too.
13.9

Check "C=C1C(=O)OC[C@H]1CCOC(=O)Nc1cccc(Br)c1" too.
21.8

Check "C=C1C(=O)OC[C@H]1CCOC(=O)Nc1ccc(OC)cc1" too.
12.4

Check "C=C1C(=O)OC[C@@H]1CCOC(=O)Nc1ccccc1F" too.
24.2

Check "C=C1C(=O)OC[C@H]1CCOC(=O)Nc1ccccc1" too.
14.8

---

Known CC50 at 18 h of a selection of compounds
test: Cytotoxicity against mouse RAW264.7 cells after 18 hrs by MTT assay; type: cell-based
Field: numeric (µM). Do not append units.

Recorded results for 4 compounds are shown here.
C=C1C(=O)OC[C@@H]1CCOC(=O)Nc1ccc(C(C)C)cc1: 15.3
C=C1C(=O)OC[C@@H]1CCOC(=O)Nc1ccc(C)c(C)c1: 13.7
C=C1C(=O)OC[C@@H]1CCOC(=O)Nc1ccc(OC)cc1: 11.9
C=C1C(=O)OC[C@H]1CCOC(=O)Nc1cc(C)cc(C)c1: 12.7

Okay, now this compound:
Endpoint output: CC50 at 18 h of "C=C1C(=O)OC[C@@H]1CCOC(=O)Nc1ccc(I)cc1" . Value?
12.5
